Provide the recorded IC50 for the entries that follow.
molecular target: CFTR (Homo sapiens); construct: expressed in transfected cells; assay: IonWorks Quattro assay (CFTR Inhibitor Assay), whole-cell planar patch clamp; type: cell-based; details: inward current (−100 mV); CHO cells stably expressing WT-CFTR; CFTR activated by 10 μM forskolin; test compound incubated 10 min
Sequence (P13569 whole entry): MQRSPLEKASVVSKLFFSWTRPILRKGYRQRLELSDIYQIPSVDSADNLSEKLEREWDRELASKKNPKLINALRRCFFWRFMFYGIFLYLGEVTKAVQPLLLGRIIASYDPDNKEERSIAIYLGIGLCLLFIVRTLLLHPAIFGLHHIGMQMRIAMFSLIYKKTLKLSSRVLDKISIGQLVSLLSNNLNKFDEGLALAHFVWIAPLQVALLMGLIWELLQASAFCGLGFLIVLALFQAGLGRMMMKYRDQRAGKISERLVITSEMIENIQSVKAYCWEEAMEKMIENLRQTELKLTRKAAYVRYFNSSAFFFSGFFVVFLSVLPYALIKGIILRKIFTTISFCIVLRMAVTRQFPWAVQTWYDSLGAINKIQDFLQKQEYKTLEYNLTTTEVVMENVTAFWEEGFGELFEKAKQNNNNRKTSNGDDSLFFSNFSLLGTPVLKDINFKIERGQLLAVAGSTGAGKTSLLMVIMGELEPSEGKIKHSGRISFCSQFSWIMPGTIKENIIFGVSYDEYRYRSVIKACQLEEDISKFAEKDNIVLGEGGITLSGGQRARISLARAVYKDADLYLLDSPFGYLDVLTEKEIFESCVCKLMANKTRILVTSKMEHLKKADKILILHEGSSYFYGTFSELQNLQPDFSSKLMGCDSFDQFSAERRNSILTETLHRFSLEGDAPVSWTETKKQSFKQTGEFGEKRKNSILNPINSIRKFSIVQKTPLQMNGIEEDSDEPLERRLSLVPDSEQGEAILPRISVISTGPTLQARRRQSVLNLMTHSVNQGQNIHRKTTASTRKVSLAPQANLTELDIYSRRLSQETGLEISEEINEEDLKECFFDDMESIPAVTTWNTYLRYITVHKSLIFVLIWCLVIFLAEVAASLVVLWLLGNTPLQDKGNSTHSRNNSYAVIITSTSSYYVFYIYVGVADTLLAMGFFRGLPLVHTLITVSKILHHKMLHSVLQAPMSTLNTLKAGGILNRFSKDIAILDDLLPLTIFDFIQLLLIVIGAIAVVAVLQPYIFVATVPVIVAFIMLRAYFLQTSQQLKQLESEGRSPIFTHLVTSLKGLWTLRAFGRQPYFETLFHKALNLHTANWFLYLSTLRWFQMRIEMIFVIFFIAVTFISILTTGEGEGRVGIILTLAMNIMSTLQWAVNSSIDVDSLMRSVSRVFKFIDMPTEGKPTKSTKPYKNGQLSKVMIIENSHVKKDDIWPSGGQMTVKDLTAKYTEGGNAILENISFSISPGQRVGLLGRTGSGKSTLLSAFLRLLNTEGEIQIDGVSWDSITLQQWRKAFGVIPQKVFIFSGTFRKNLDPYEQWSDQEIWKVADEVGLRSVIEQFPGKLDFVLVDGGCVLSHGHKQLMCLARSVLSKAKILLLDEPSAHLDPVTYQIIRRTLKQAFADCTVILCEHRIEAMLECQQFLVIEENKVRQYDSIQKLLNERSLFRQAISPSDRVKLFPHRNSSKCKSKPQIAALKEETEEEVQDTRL

Lab note: measured IC50 of CC(=O)NC[C@H]1Cn2c(-c3nc(C)cs3)c3c(=O)n(C)c(=O)n(C)c3c2[C@H](c2ccc(Cl)o2)S1 (single isomer, unassigned) [Example 26.3a] was 0.45 µM

Lab note: Cn1c(=O)c2c(-c3cccc(C#N)c3)n3c(c2n(C)c1=O)[C@H](c1nc(Cl)cs1)CCC3 [Example 13a] gave IC50 of 0.07 µM

The molecule identified as Cn1c(=O)c2c(C3=CCCCC3)n3c(c2n(C)c1=O)C(c1ccc(Cl)o1)SCC3 (single isomer, unassigned) [Example 3.1.2] registered its IC50 at 1.51 µM

The recorded IC50 for entry Cc1cccc(-c2c3c(=O)n(C)c(=O)n(C)c3c3n2CCCC3c2nc(C)cs2)c1 (single isomer, unassigned) [Example 8.2] equals 0.29 µM

Record CCOc1cccc(-c2c3c(=O)n(C)c(=O)n(C)c3c3n2CCSC3c2ccc(Cl)o2)c1 (single isomer, unassigned) [Example 15.12] . Reported IC50: 9.27 µM

Notebook: Cn1c(=O)c2c(-c3cccc(C#N)c3)n3c(c2n(C)c1=O)C(c1nc(Cl)cs1)CC3 (single isomer, unassigned) [Example 20a] , IC50 read as 0.27 µM

Please fill in: IC50 reported for Cn1cnc(-c2c3c(=O)n(C)c(=O)n(C)c3c3n2CCSC3c2ccc(Cl)o2)c1 (racemic) [Example 15.7] = 5.5 µM

Looking up Cc1csc(C2CCCn3c(-c4cccc(C#N)c4)c4c(=O)n(C)c(=O)n(C)c4c32)n1 (single isomer, unassigned) [Example 9.1] , I found its IC50 recorded as 0.29 µM

Form: molecule = Cc1csc(-c2c3c(=O)n(C)c(=O)n(C)c3c3n2CCSC3c2ccc(Cl)o2)n1 (single isomer, unassigned) [Example 3.1.1] ; IC50 = 0.41 µM

Record Cn1cc(-c2c3c(=O)n(C)c(=O)n(C)c3c3n2CCSC3c2ccc(Cl)o2)cn1 (racemic) [Example 15.8] . Reported IC50: 3.93 µM

Lab book: IC50 of Cc1ccc(C2CCn3c(-c4ccccc4)c4c(=O)n(C)c(=O)n(C)c4c32)o1 (racemic) [Example 11.0] noted as 9.14 µM

Field IC50 (entry Cn1ccc(-c2c3c(=O)n(C)c(=O)n(C)c3c3n2C[C@H](CO)S[C@H]3c2ccc(Cl)o2)n1 (single isomer, unassigned) [Example 17.1] ) reads 0.23 µM

Record Cc1ccc([C@@H]2CC[C@@H](Cn3nccn3)n3c(-c4ccccc4)c4c(=O)n(C)c(=O)n(C)c4c32)o1 (single isomer, unassigned) [Example 24] . Reported IC50: 1.74 µM

Reported IC50 ( Cn1c(=O)c2c(-c3ccccc3)n3c(c2n(C)c1=O)C(c1nc(Cl)cs1)C(C)(C)C3 (single isomer, unassigned) [Example 21a] ) = 0.33 µM

response.value for Cc1ccc(C2SCCn3c(-c4ccccc4)c4c(=O)n(C)c(=O)n(C)c4c32)o1 (single isomer, unassigned) [Example 1.3] (field: IC50) = > 30 µM

get_value(item= Cn1c(=O)c2c(-c3ccccc3)n3c(c2n(C)c1=O)[C@H](c1ccc(Cl)o1)SCC3 [Example 1.1.1] , readout=IC50) returns 0.63 µM

Record Cc1ccc(C2c3c4c(c(-c5cccc(F)c5)n3CCC2(F)F)c(=O)n(C)c(=O)n4C)o1 (racemic) [Example 18] . Reported IC50: 0.48 µM

What the record says about Cc1csc(-c2c3c(=O)n(C)c(=O)n(C)c3c3n2C[C@H](CN)S[C@H]3c2ccc(Cl)o2)n1 (single isomer, unassigned) [Example 19] : IC50 is 5.38 µM

Sample Cn1c(=O)c2c(-c3nc(CO)cs3)n3c(c2n(C)c1=O)C(c1nc(Cl)cs1)CCC3 (single isomer, unassigned) [Example 13.1a] ; IC50 observed: 0.1 µM

For record Cc1nc(-c2c3c(=O)n(C)c(=O)n(C)c3c3n2C[C@H](CO)S[C@H]3c2ccc(Cl)o2)cs1 (single isomer, unassigned) [Example 17.2] the listed IC50 is 0.24 µM

// Cc1ccc([C@@H]2CCCn3c(-c4ccccc4)c4c(=O)n(C)c(=O)n(C)c4c32)o1 [Example 6.3] : IC50 value = 2.24 µM

Lab note: Cn1ccc(-c2c3c(=O)n(C)c(=O)n(C)c3c3n2CCSC3c2ccc(Cl)o2)n1 (single isomer, unassigned) [Example 15.11] gave IC50 of 0.13 µM

response.value for Cn1c(=O)c2c(-c3cccc(C#N)c3)n3c(c2n(C)c1=O)C(c1nc(Cl)cs1)CCCC3 (single isomer, unassigned) [Example 31] (field: IC50) = 1.45 µM

Form field IC50, entry Cc1ccc(C2SCCn3c(-c4ccccc4)c4c(=O)n(C)c(=O)n(C)c4c32)s1 (racemic) [Example 1.10] : 8.08 µM

Reported IC50 for C=C1Cn2c(-c3cccc(F)c3)c3c(=O)n(C)c(=O)n(C)c3c2C1c1nc(Cl)cs1 (racemic) [Example 29] was 0.44 µM

Noted for Cc1csc(C2CCNn3c(-c4cccc(Cl)c4)c4c(=O)n(C)c(=O)n(C)c4c32)n1 (racemic) [Example 10.2] : its IC50 reads 0.7 µM

Reference source for all entries: patent US20140171417A1
